target: sortilin (Homo sapiens); construct: The extracellular Vps10p domain of sortilin was overexpressed in HEK293F cells and purified from the medium; made in house; host or cells: HEK293F; experiment: 3H-neurotensin-binding sortilin scintillation proximity assay (SPA); settings: structure-activity relationship relative to hit 1a
Sequence (Q99523 78-755 limits assumed): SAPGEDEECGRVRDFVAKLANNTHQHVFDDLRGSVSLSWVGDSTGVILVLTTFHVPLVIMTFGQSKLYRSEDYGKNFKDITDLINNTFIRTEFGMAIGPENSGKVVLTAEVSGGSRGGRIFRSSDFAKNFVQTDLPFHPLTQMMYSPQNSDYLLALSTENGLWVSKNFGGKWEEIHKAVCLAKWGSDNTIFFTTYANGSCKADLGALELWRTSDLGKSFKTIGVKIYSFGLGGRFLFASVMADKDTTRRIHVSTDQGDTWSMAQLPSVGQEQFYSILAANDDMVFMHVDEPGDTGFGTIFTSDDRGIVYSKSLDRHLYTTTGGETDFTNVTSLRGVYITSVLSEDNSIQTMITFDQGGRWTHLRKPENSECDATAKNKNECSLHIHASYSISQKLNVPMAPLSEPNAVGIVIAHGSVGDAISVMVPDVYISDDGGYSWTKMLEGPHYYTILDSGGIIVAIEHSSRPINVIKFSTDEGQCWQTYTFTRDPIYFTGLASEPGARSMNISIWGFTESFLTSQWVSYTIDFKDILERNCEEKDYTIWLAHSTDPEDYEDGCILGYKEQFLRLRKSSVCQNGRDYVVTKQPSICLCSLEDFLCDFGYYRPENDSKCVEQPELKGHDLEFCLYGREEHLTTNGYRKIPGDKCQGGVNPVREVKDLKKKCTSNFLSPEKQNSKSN
quantity: activity in SPA assay (in words)

Cc1cc(=O)oc2c(CNC(CC(C)(C)C)C(=O)O)c(O)ccc12 (stereo not shown); activity was retained
Cc1cc(=O)oc2c(CNC(C(=O)O)C3CCCCC3)c(O)ccc12 (stereo not shown); activity was retained
Cc1cc(=O)oc2c(CNC(C(=O)O)C(C)C)c(O)ccc12 (stereo not shown); activity was ablated
Cc1cc(=O)oc2c(CNC(Cc3ccccc3)C(=O)O)c(O)ccc12 (stereo not shown); activity was ablated

Qu. Read the entry CCC(C)C(NCc1c(O)ccc2c(C)cc(=O)oc12)C(=O)O (stereo not shown) and write its reported activity in SPA assay (in words).
Ans. activity was retained

Qu. In one line, give reported activity in SPA assay (in words) of the entry Cc1cc(=O)oc2c(CNC(C)C(=O)O)c(O)ccc12 (stereo not shown) .
Ans. activity was ablated
